biological target: Urokinase from human urine (human, UniProt P00749 21-431, limits assumed); test: cell-based or functional assay
Bridges are numbered along the chain shown (N, C = ends). [ ]: non-standard residue; d: D form. AlloThr = allo threonine
Short version: % inhibition at 100 µM at least 7% is y, less is n.

// query Is % inhibition at 100 µM for ICTXSDPPICR (HELM PEPTIDE1{I.C.T.[Nle].S.D.P.P.I.C.R.[dP].P}$PEPTIDE1,PEPTIDE1,2:R3-10:R3|PEPTIDE1,PEPTIDE1,1:R1-13:R2$$$V2.0; SMILES CCCC[C@@H]1NC(=O)[C@H]([C@@H](C)O)NC(=O)[C@@H]2CSSC[C@H](NC(=O)[C@H]([C@@H](C)CC)NC(=O)[C@@H]3CCCN3C(=O)[C@@H]3CCCN3C(=O)[C@H](CC(=O)O)NC(=O)[C@H](CO)NC1=O)C(=O)N[C@@H](CCCNC(=N)N)C(=O)N1CCC[C@@H]1C(=O)N1CCC[C@H]1C(=O)N[C@@H]([C@@H](C)CC)C(=O)N2) [Example 22] at or above 7%?
// result n

// query Is % inhibition at 100 µM for cyclo(FCTK[AlloThr]DPPICS[dP]P) (disulfide 2-10) [Example 24] at or above 7%?
// result n

// query Is % inhibition at 100 µM for FCTKSDPPICS (HELM PEPTIDE1{F.C.T.K.S.D.P.P.I.C.S.[dP].E}$PEPTIDE1,PEPTIDE1,2:R3-10:R3|PEPTIDE1,PEPTIDE1,1:R1-13:R2$$$V2.0; SMILES CC[C@H](C)[C@@H]1NC(=O)[C@@H]2CCCN2C(=O)[C@@H]2CCCN2C(=O)[C@H](CC(=O)O)NC(=O)[C@H](CO)NC(=O)[C@H](CCCCN)NC(=O)[C@H]([C@@H](C)O)NC(=O)[C@@H]2CSSC[C@H](NC1=O)C(=O)N[C@@H](CO)C(=O)N1CCC[C@@H]1C(=O)N[C@@H](CCC(=O)O)C(=O)N[C@@H](Cc1ccccc1)C(=O)N2) [Example 64] at or above 7%?
// result n

// query Is % inhibition at 100 µM for FCTKSDPPICS (HELM PEPTIDE1{F.C.T.K.S.D.P.P.I.C.S.[dP].D}$PEPTIDE1,PEPTIDE1,2:R3-10:R3|PEPTIDE1,PEPTIDE1,1:R1-13:R2$$$V2.0; SMILES CC[C@H](C)[C@@H]1NC(=O)[C@@H]2CCCN2C(=O)[C@@H]2CCCN2C(=O)[C@H](CC(=O)O)NC(=O)[C@H](CO)NC(=O)[C@H](CCCCN)NC(=O)[C@H]([C@@H](C)O)NC(=O)[C@@H]2CSSC[C@H](NC1=O)C(=O)N[C@@H](CO)C(=O)N1CCC[C@@H]1C(=O)N[C@@H](CC(=O)O)C(=O)N[C@@H](Cc1ccccc1)C(=O)N2) [Example 47] at or above 7%?
// result n

// query Is % inhibition at 100 µM for FCTXSDPPICY (HELM PEPTIDE1{F.C.T.[Nle].S.D.P.P.I.C.Y.[dP].P}$PEPTIDE1,PEPTIDE1,2:R3-10:R3|PEPTIDE1,PEPTIDE1,1:R1-13:R2$$$V2.0; SMILES CCCC[C@@H]1NC(=O)[C@H]([C@@H](C)O)NC(=O)[C@@H]2CSSC[C@H](NC(=O)[C@H]([C@@H](C)CC)NC(=O)[C@@H]3CCCN3C(=O)[C@@H]3CCCN3C(=O)[C@H](CC(=O)O)NC(=O)[C@H](CO)NC1=O)C(=O)N[C@@H](Cc1ccc(O)cc1)C(=O)N1CCC[C@@H]1C(=O)N1CCC[C@H]1C(=O)N[C@@H](Cc1ccccc1)C(=O)N2) [Example 60] at or above 7%?
// result y

// query Is % inhibition at 100 µM for FCTKSDPPICY (HELM PEPTIDE1{F.C.T.K.S.D.P.P.I.C.Y.[dP].P}$PEPTIDE1,PEPTIDE1,2:R3-10:R3|PEPTIDE1,PEPTIDE1,1:R1-13:R2$$$V2.0; SMILES CC[C@H](C)[C@@H]1NC(=O)[C@@H]2CCCN2C(=O)[C@@H]2CCCN2C(=O)[C@H](CC(=O)O)NC(=O)[C@H](CO)NC(=O)[C@H](CCCCN)NC(=O)[C@H]([C@@H](C)O)NC(=O)[C@@H]2CSSC[C@H](NC1=O)C(=O)N[C@@H](Cc1ccc(O)cc1)C(=O)N1CCC[C@@H]1C(=O)N1CCC[C@H]1C(=O)N[C@@H](Cc1ccccc1)C(=O)N2) [Example 5] at or above 7%?
// result n

// query Is % inhibition at 100 µM for FCTXSDPPICY (HELM PEPTIDE1{F.C.T.[Nle].S.D.P.P.I.C.Y.[dP].P}$PEPTIDE1,PEPTIDE1,2:R3-10:R3|PEPTIDE1,PEPTIDE1,1:R1-13:R2$$$V2.0; SMILES CCCC[C@@H]1NC(=O)[C@H]([C@@H](C)O)NC(=O)[C@@H]2CSSC[C@H](NC(=O)[C@H]([C@@H](C)CC)NC(=O)[C@@H]3CCCN3C(=O)[C@@H]3CCCN3C(=O)[C@H](CC(=O)O)NC(=O)[C@H](CO)NC1=O)C(=O)N[C@@H](Cc1ccc(O)cc1)C(=O)N1CCC[C@@H]1C(=O)N1CCC[C@H]1C(=O)N[C@@H](Cc1ccccc1)C(=O)N2) [Example 23] at or above 7%?
// result y

// query Is % inhibition at 100 µM for ICTKSDPPXCR (HELM PEPTIDE1{I.C.T.K.S.D.P.P.[Cha].C.R.[dP].P}$PEPTIDE1,PEPTIDE1,2:R3-10:R3|PEPTIDE1,PEPTIDE1,1:R1-13:R2$$$V2.0; SMILES CC[C@H](C)[C@@H]1NC(=O)[C@@H]2CCCN2C(=O)[C@H]2CCCN2C(=O)[C@H](CCCNC(=N)N)NC(=O)[C@@H]2CSSC[C@H](NC1=O)C(=O)N[C@@H]([C@@H](C)O)C(=O)N[C@@H](CCCCN)C(=O)N[C@@H](CO)C(=O)N[C@@H](CC(=O)O)C(=O)N1CCC[C@H]1C(=O)N1CCC[C@H]1C(=O)N[C@@H](CC1CCCCC1)C(=O)N2) [Example 20] at or above 7%?
// result n

Where do these numbers come from? They come from patent US20140213531A1.
